Tested on: 349418-098-R-PDC complex spheroid viability;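 also: spheroids exposed to compound for seven days before viability readout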
Assay: Anticancer human tumor 349418-098-R-PDC patient-derived lung adenocarcinoma cell line growth inhibition [RAS]
Conditions: second compound 0.1 µM; first compound 1 µM; stronger effect = lower value
READOUT: viability, T/C (%)
Numeric only. Scale: %

Some compounds with known viability, T/C results, for comparison:
{"columns": ["COMPOUND", "MEASUREMENT UNITS", "NUMBER"],
 "data": [
  ["CCC(CC)c1cc(NC2CCC(N)C2)n2nccc2n1 (stereo not drawn) + C#Cc1c(F)ccc2cc(O)cc(-c3ncc4c(N5CC6CCC(C5)N6)nc(OCC56CCCN5CC(F)C6)nc4c3F)c12", "%", 42.6],
  ["CC(C)NCC(C(=O)N1CCN(c2ncnc3c2C(C)CC3O)CC1)c1ccc(Cl)cc1 (stereo not drawn) + C#Cc1c(F)ccc2cc(O)cc(-c3ncc4c(N5CC6CCC(C5)N6)nc(OCC56CCCN5CC(F)C6)nc4c3F)c12", "%", 32.4]
]}

API: the following record is the query input.
### Prompt For the compound C[C@@H](NC(=O)c1ncnc(N)c1Cl)c1ncc(C(=O)Nc2cc(C(F)(F)F)c(Cl)cn2)s1 + C=CC(=O)N1CCN(c2nc(OCC3CCCN3C)nc3c(F)c(-c4nc(N)cc(C)c4C(F)(F)F)c(Cl)cc23)C(C)C1 , report viability, T/C.
### Response 60.9
